- system tested: Fes (UniProt P07332)
- Sequence (P07332 whole entry, looked up): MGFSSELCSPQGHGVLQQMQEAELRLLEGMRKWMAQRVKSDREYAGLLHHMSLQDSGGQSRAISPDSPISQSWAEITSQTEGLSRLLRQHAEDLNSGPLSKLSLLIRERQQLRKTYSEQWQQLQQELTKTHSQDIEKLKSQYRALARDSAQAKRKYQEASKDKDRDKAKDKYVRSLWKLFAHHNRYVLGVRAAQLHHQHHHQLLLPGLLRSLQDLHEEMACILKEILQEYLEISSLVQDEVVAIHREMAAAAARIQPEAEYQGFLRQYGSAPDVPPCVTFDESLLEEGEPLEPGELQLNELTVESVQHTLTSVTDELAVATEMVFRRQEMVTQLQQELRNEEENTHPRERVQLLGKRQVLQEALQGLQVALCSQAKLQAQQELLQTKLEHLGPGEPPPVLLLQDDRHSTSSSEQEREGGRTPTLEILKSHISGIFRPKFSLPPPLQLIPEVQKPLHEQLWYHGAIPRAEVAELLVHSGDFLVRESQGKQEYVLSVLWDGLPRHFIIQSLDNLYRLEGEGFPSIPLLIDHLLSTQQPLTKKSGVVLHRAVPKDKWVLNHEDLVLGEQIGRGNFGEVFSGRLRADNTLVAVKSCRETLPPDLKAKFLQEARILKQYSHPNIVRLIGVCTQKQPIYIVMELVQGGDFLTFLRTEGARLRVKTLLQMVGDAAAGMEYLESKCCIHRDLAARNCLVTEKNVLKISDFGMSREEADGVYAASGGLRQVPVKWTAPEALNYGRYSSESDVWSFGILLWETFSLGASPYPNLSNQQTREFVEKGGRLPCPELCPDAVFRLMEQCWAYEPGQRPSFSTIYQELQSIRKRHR
- test name: phosphorylation enrichment, bacterial display (enrichment ratio); higher = better substrate or ligand; peptides without Tyr show the background;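 also: 11-residue human phosphosite peptides and single-mutation variants displayed on the E. coli surface, counted by deep sequencing, each peptide's frequency after selection divided by its frequency in the unselected input library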;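 also: frequency after pTyr selection over input frequency; kinase dosed for 20-30% of maximal phosphorylation in three min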
The following sequences are shown together with reported phosphorylation enrichment values.
measurement kind: phosphorylation enrichment

>>> value_reported("FVSIVYNDSGE [TSC2_Y1650]")
0.993
>>> value_reported("SVNCTYSPALN [TP53_Y126_T123N]")
1.01
>>> value_reported("AIKSFYAALID [RYR1_Y2426_M2423K]")
0.981

* * *

- System: c-Src
- test name: phosphorylation enrichment, bacterial display (enrichment ratio); higher = better substrate or ligand; peptides without Tyr show the background
Cut-off 0.4 on phosphorylation enrichment, inclusive. At or above means 1.0; below means 0.0.

>>> qualitative_label("YDYKKYGKGLR [ZNF445_Y433]")
0.0
>>> qualitative_label("CDKEYYSVHNK [MET_Y1235_Y1230C]")
1.0
>>> qualitative_label("SVMAEYGLFRA [VSX2_Y219_G223R_YF]")
1.0
>>> qualitative_label("SKKSTYQALLD [GANC_Y43]")
1.0
>>> qualitative_label("HLEKKYVHRDS [CSF1R_Y708_R710H]")
0.0
>>> qualitative_label("LYEDRYLLGTS [ASS1_Y87]")
1.0
>>> qualitative_label("VEDQYYRVDCY [FHL1_Y208_C209R]")
1.0
>>> qualitative_label("SLFNGYVYSGV [NEIL3_Y71]")
1.0
>>> qualitative_label("IGNGYYFHVFS [MYBPC3_Y1136_R1138H]")
0.0
>>> qualitative_label("ILNANYMAKRL [GLDC_Y839]")
0.0
>>> qualitative_label("NKVKFYIPFMN [NCR1_Y84_D87Y_YF]")
1.0
>>> qualitative_label("SVMAEYGLYAA [VSX2_Y219_G223A]")
1.0
>>> qualitative_label("DEGVNHFMSKG [FBXO8_Y156_Y156H]")
0.0
>>> qualitative_label("QDRTYYERVRT [SPEN_Y633_S635R]")
1.0
>>> qualitative_label("PPDGEYFTLQI [TP53_Y327_L323P]")
1.0
>>> qualitative_label("GGRIDYIAGLV [APRT_Y60_D65V]")
1.0
>>> qualitative_label("PQGVRYTYTID [DCX_Y103_I104T]")
1.0
>>> qualitative_label("VIKSSYQVAKA [CPT1B_Y534_E531K]")
1.0
>>> qualitative_label("PAVGIYNGNIN [CDCP1_Y707_D709G]")
1.0
>>> qualitative_label("GGGMIYPLDLF")
1.0
>>> qualitative_label("QRRLVYFERGA [RYR1_Y245_G248R_YF]")
1.0
>>> qualitative_label("PLKYLYPNIDK [STAT1_Y668]")
1.0
>>> qualitative_label("KQELVYTNKKL [OPTN_Y356]")
1.0
>>> qualitative_label("SSTASYFEAPG [RFX2_Y108]")
1.0
>>> qualitative_label("FFVVRYCWLRR [MPZ_Y181_YF]")
1.0
>>> qualitative_label("GIVEDYRPTFF [ACVRL1_Y421_P424T_YF]")
1.0
>>> qualitative_label("YKEQGYHRLPP [RIN1_Y681]")
1.0
>>> qualitative_label("GVASDYKCIDP [VPS13B_Y1991]")
1.0
>>> qualitative_label("ERPGVHTNVVE [F11_Y608_Y608H]")
0.0
>>> qualitative_label("RKMSSYAFFVQ [HMGB1_Y16_G11R]")
1.0
>>> qualitative_label("ERRLIYTSDPK [VPS13D_Y864]")
1.0
>>> qualitative_label("SSMIDYKPLEK [MYOC_Y479_N480K]")
0.0
>>> qualitative_label("ALRASYTPSPV [ESS2_Y418_A423V]")
1.0
>>> qualitative_label("WTAHSYRMGSA [ARHGEF7_Y785_T790A]")
1.0
>>> qualitative_label("QGGRCYMMIVD [GAA_Y438_R437C]")
1.0
>>> qualitative_label("SKNSKCNAEST [PSEN1_Y315_Y315C]")
0.0
>>> qualitative_label("RQNQEYEILMD [KRT39_Y379_L383M]")
1.0
>>> qualitative_label("SNFRAYATEPQ [TNNI3_Y29_H34Q_YF]")
0.0
>>> qualitative_label("TEFIQYMRRKN [MAX_Y73_YF]")
1.0
>>> qualitative_label("MGRVNYGAFIN [GLB1_Y485_YF]")
1.0
>>> qualitative_label("ILGRTHYVNHE [NEDD4_Y627_Y627H]")
1.0
